Molecular target: PARP-1 (Homo sapiens, UniProt P09874)
Construct: purchased
Sequence (P09874 whole entry): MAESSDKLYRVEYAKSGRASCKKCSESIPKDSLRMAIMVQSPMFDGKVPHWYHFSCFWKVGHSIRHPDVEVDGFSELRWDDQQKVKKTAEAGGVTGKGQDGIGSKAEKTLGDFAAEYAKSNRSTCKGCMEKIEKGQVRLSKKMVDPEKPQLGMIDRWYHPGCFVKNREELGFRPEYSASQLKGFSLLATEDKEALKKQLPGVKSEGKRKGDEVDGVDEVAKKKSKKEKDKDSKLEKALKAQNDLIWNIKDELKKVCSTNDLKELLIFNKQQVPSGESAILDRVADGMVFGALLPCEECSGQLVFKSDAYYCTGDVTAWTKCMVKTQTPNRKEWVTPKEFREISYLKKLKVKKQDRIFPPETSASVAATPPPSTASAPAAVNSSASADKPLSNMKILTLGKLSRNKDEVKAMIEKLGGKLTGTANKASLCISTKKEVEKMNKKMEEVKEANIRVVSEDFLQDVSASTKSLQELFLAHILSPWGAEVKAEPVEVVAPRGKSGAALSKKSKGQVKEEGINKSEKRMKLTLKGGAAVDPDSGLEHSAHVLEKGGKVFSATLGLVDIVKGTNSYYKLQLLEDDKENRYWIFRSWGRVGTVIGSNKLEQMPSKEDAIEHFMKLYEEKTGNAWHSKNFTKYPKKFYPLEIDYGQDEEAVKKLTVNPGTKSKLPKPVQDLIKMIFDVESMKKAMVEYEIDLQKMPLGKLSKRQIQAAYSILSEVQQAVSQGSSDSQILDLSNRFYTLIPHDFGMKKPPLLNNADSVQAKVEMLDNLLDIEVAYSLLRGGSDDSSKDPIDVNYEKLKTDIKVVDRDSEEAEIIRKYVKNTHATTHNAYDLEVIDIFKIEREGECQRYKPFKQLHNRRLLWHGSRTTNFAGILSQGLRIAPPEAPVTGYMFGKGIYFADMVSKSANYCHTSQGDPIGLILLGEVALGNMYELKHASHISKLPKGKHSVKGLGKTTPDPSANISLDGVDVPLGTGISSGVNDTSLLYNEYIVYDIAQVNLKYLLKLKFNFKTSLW
Experiment: PARP inhibitory assay (histone-coated plate, colorimetric)
Assay type: biochemical
Details: 10 µM
readout_kind: inhibition at 10 µM (%)
Numbers only, in %.

Consider the following illustrative entries.
>>> print(df.to_string())
                         structure_notation                        subject_of_test         readout_kind  unit_descriptor  measured_number
0  CN(C)CC(=O)Nc1ccc2c(c1)C(=O)c1cc(NC(=O)CN(C)C)ccc1C2=O  PARP-1 (Homo sapiens, UniProt P09874)  inhibition at 10 µM                %               56
1  CCN(CC)CCC(=O)Nc1ccc2c(c1)C(=O)c1cc(NC(=O)CCN(CC)CC)ccc1C2=O  PARP-1 (Homo sapiens, UniProt P09874)  inhibition at 10 µM                %               51

Q: Reported inhibition at 10 µM for CN1CCN(Cc2nc3ccc4c(c3[nH]2)C(=O)c2ccccc2C4=O)CC1 : what is it?
Ans: 58
